Origin of measurements: patent US20180353462A1

Quick list: IC50 per entry.
Biological target: c-Kit(Y823D) (Homo sapiens, UniProt P10721, Y823D)
Construct: made in house
Sequence (P10721 26-976 Y823D): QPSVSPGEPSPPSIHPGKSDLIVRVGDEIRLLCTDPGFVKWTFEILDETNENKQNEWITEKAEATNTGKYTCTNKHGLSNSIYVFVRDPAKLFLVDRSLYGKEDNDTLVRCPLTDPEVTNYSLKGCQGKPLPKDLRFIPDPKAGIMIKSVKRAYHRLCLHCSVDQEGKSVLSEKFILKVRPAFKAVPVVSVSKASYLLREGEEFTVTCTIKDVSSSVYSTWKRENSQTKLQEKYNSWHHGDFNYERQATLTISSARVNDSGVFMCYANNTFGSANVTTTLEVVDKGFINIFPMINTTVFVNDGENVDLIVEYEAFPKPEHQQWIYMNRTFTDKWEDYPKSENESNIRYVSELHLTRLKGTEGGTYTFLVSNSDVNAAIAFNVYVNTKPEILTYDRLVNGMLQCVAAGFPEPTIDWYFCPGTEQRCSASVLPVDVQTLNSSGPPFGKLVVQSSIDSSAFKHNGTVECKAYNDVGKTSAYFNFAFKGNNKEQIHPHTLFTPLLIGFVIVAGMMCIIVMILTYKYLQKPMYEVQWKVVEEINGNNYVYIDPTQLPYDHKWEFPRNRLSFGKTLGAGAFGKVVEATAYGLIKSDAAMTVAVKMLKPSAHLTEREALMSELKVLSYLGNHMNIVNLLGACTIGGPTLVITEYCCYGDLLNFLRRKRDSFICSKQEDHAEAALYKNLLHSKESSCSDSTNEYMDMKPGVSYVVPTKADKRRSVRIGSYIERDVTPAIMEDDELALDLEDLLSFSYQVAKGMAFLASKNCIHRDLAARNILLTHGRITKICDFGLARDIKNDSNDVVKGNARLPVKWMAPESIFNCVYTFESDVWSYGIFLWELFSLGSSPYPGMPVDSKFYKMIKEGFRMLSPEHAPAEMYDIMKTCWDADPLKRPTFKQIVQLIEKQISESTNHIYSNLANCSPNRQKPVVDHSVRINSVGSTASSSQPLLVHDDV
Experiment: Kinase competition binding assay, c-Kit(Y823D)
Conditions: Table 1 kinase panel
READOUT_TYPE: IC50 (nM)

{"MOLECULE": "COc1cc(-c2cc(=O)c3c(O)cc(O)c(C/C=C(\\C)CCC=C(C)C)c3o2)ccc1O [FBL-03C]", "VALUE_QUALIFIER": ">", "OBS_VALUE": 20000}
{"MOLECULE": "COc1cc(-c2cc(=O)c3c(O)c(C/C=C(\\C)CCC=C(C)C)c(O)cc3o2)ccc1O [FBL-03A]", "VALUE_QUALIFIER": ">", "OBS_VALUE": 20000}
{"MOLECULE": "COc1cc(-c2cc(=O)c3c(O)c(CC=C(C)C)c(O)cc3o2)ccc1O [FBL-03B]", "VALUE_QUALIFIER": "=", "OBS_VALUE": 244}
{"MOLECULE": "COc1ccc(-c2cc(=O)c3c(O)c(C/C=C(\\C)CCC=C(C)C)c(O)cc3o2)cc1OC [FBL-03D]", "VALUE_QUALIFIER": ">", "OBS_VALUE": 30000}
{"MOLECULE": "COc1cc(-c2cc(=O)c3c(O)cc(O)c(CC=C(C)C)c3o2)ccc1O [FBL-03G]", "VALUE_QUALIFIER": "=", "OBS_VALUE": 84}

###

Target: PIK3CA(1800L) (Homo sapiens, UniProt P42336, I800L)
Construct: T7 phage fusion (most assays) or DNA tag for qPCR (HEK-293-made kinases); made in house
Sequence (P42336 whole entry I800L, the tested form may be a part): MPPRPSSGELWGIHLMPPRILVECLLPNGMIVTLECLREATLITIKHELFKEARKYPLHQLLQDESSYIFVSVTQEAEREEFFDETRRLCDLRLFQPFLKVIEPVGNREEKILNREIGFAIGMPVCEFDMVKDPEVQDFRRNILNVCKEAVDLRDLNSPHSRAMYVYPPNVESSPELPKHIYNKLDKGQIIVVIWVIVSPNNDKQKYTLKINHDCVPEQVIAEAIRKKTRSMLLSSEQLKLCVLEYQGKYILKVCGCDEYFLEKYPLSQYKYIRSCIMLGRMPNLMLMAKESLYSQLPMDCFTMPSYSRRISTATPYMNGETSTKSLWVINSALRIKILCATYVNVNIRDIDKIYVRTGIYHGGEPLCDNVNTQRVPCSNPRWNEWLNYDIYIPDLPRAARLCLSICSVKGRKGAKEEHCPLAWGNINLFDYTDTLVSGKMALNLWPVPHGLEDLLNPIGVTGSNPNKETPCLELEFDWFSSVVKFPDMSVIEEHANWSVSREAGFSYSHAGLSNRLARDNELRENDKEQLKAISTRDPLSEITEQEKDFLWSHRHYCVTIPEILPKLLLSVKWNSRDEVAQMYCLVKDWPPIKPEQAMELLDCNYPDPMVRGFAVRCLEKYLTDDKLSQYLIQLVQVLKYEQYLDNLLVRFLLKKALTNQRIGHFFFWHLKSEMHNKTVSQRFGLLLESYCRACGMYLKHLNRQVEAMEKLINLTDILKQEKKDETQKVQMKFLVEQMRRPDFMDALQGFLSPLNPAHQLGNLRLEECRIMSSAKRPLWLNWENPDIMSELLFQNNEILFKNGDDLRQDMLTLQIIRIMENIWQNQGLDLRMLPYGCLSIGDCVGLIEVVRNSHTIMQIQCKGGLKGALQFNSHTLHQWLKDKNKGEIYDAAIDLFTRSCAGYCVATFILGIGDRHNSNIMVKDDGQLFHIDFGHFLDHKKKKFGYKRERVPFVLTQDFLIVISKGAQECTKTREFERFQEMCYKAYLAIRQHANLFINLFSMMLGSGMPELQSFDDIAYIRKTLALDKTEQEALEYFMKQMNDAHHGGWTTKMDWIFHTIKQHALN
Test: Kinase competition binding assay, PIK3CA(1800L)
Conditions: Table 1 kinase panel
READOUT_TYPE: IC50

{"COMPOUND": "COc1cc(-c2cc(=O)c3c(O)cc(O)c(C/C=C(\\C)CCC=C(C)C)c3o2)ccc1O [FBL-03C]", "READOUT_TYPE": "IC50", "OBS_VALUE": "780 nM"}
{"COMPOUND": "COc1cc(-c2cc(=O)c3c(O)c(C/C=C(\\C)CCC=C(C)C)c(O)cc3o2)ccc1O [FBL-03A]", "READOUT_TYPE": "IC50", "OBS_VALUE": "> 20000 nM"}
{"COMPOUND": "COc1cc(-c2cc(=O)c3c(O)cc(O)c(CC=C(C)C)c3o2)ccc1O [FBL-03G]", "READOUT_TYPE": "IC50", "OBS_VALUE": "> 20000 nM"}
{"COMPOUND": "COc1ccc(-c2cc(=O)c3c(O)c(C/C=C(\\C)CCC=C(C)C)c(O)cc3o2)cc1OC [FBL-03D]", "READOUT_TYPE": "IC50", "OBS_VALUE": "> 30000 nM"}

###

Biological target: RIOK1 (Homo sapiens, UniProt Q9BRS2)
Construct: T7 phage fusion (most assays) or DNA tag for qPCR (HEK-293-made kinases); made in house
Sequence (Q9BRS2 whole entry, the tested form may be a part): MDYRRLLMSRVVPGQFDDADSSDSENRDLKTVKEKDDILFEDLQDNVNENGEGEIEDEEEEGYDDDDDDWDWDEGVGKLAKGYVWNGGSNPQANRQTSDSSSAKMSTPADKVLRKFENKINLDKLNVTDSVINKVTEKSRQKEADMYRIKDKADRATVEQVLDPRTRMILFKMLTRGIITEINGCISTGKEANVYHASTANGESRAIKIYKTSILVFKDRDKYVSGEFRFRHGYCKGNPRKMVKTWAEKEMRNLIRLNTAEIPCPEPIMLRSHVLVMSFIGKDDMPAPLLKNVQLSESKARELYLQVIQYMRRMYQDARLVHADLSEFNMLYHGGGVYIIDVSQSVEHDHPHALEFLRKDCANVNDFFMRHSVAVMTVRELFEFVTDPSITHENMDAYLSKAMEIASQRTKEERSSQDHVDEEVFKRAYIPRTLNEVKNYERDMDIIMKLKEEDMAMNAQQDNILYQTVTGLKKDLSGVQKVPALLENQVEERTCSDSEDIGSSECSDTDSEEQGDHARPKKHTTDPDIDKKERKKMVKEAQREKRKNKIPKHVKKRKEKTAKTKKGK
Experiment: Kinase competition binding assay, RIOK1
Details: Table 1 kinase panel
Quick list: IC50 per entry.

{"COMPOUND": "COc1cc(-c2cc(=O)c3c(O)c(C/C=C(\\C)CCC=C(C)C)c(O)cc3o2)ccc1O [FBL-03A]", "IC50": "> 20000 nM"}
{"COMPOUND": "COc1cc(-c2cc(=O)c3c(O)cc(O)c(CC=C(C)C)c3o2)ccc1O [FBL-03G]", "IC50": "> 20000 nM"}
{"COMPOUND": "COc1cc(-c2cc(=O)c3c(O)c(CC=C(C)C)c(O)cc3o2)ccc1O [FBL-03B]", "IC50": "> 10000 nM"}
{"COMPOUND": "COc1cc(-c2cc(=O)c3c(O)cc(O)c(C/C=C(\\C)CCC=C(C)C)c3o2)ccc1O [FBL-03C]", "IC50": "340 nM"}
{"COMPOUND": "COc1ccc(-c2cc(=O)c3c(O)c(C/C=C(\\C)CCC=C(C)C)c(O)cc3o2)cc1OC [FBL-03D]", "IC50": "> 30000 nM"}
